All values here come from paper PMC5540273.

test system: RSK1(Kin.Dom.2-C-terminal); construct: gene RPS6KA1; settings: concentration: 1 μM, replicates: in singlicate; n = 1;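 also: KINOMEscan kinase panel screen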
Mark rule not met for %Inh values under 20%, and rule met for everything at or above.

Recorded results for 8 compounds are shown here.
Compound	Target of assay	Discrete label
CCNC(=O)/C=C/c1n[nH]c2cc(Sc3ccccc3C(=O)NC)ccc12	RSK1(Kin.Dom.2-C-terminal)	rule not met
Cc1ccc(-c2ccc3occ(-c4ccc(S(C)=O)cc4)c3c2)nn1 (centres unmarked)	RSK1(Kin.Dom.2-C-terminal)	rule not met
O=C(Nc1c(F)cccc1F)c1cc(C(=O)c2ccccc2F)c[nH]1	RSK1(Kin.Dom.2-C-terminal)	rule not met
CSc1ccc(NC2=C(c3ccc(Cl)cc3)C(=O)NC2=O)cc1	RSK1(Kin.Dom.2-C-terminal)	rule not met
CN(c1ccc2c(c1)nc(NCc1ccccc1)n2C)c1ccnc(Nc2ccc(CS(C)(=O)=O)cc2)n1.Cl	RSK1(Kin.Dom.2-C-terminal)	rule not met
Cl.O=C(Nc1ccc(Oc2ccc3[nH]c(NC(=O)c4ccco4)nc3c2)cc1)Nc1cc(C(F)(F)F)ccc1F	RSK1(Kin.Dom.2-C-terminal)	rule not met
Cl.Cl.NCC(NC(=O)c1cc(-c2cccnc2)c(-c2ccnc3[nH]ccc23)s1)c1ccccc1 (centres unmarked)	RSK1(Kin.Dom.2-C-terminal)	rule met
O=C(Nc1n[nH]c2nc(-c3cccc(O)c3)ccc12)C1CC1	RSK1(Kin.Dom.2-C-terminal)	rule not met

Is the recorded value of %Inh equal to or greater than 20% for this compound? CN1CCN(Cc2ccc(NC(=O)Nc3ccc(N(C)c4ccnc(Nc5ccc(CS(C)(=O)=O)cc5)n4)cc3)cc2)CC1.Cl
rule not met

Is the recorded value of %Inh equal to or greater than 20% for this compound? NCCC(NC(=O)c1cc(Br)c(-c2ccnc3[nH]ccc23)s1)c1ccccc1.O=C(O)C(F)(F)F.O=C(O)C(F)(F)F (centres unmarked)
rule met

----------
Let's look at some compounds and their measured %Inh.
tested on: IRAK1; details: concentration: 1 μM, replicates: in singlicate; n = 1
Express the result in % but write the number alone.

Compound	%Inh, %
N#CC1(c2cccc(C(=O)Nc3cccc(Oc4ccc5nc(NC(=O)C6CC6)sc5n4)c3)c2)CC1	0
Cc1ccc(C)c(NC(=O)Nc2ccc(C)c(-c3ccc(C(=O)Nc4ccncc4)cc3)c2)c1 [GSK1398473]	5
COc1cccc(-c2nc(-c3ccccc3)[nH]c2-c2ccncc2)c1 [SB-610250]	48
O=C(Nc1c(F)cccc1F)c1cc(C(=O)c2ccccc2F)c[nH]1 [GSK1326180]	0
c1ccc(Oc2ccc(Nc3ccnc4cc(-c5ccc(CN6CCCCC6)o5)ccc34)cc2)nc1 [GW567143]	24
O=C(Nc1n[nH]c2nc(-c3ccccc3)ccc12)C1CC1 [SB-708999]	24

Returns the measured %Inh for the input compound. Input: Cc1ccc(O)cc1Nc1ccnc2cc(-c3ccc(CN4CCCCC4)o3)ccc12 [GW557777]
0

Returns the measured %Inh for the input compound. Input: CN(C)c1ncnc2nc[nH]c12 [SKF-31736]
43

Returns the measured %Inh for the input compound. Input: COC(=O)Nc1nc2ccc(Oc3ccc(CC(=O)Nc4cc(C(F)(F)F)ccc4F)cc3)cc2[nH]1 [GW680903]
26

----------
tested on: GRK1; details: concentration: 1 μM, replicates: in singlicate; n = 1
Outcome measure: %Inh (%)
Express the result in % but write the number alone.

Solved cases (5 shown):
Compound	Test result
N#Cc1cnc2cc(-c3cnc(CNCCN4CCOCC4)s3)ccc2c1Nc1ccc(Oc2ccccc2)cc1 [GW664114]	0
CC(C)NCC(Cc1ccccc1)NC(=O)c1cc(Br)c(-c2ccnc3[nH]ccc23)s1.Cl.Cl (centres unmarked) [GSK1383281]	72
Nc1cccc(-c2ccc3c(N)n[nH]c3c2)c1 [GSK2193613]	0
COc1cccc(C2=C(Nc3cccc(O)c3)C(=O)NC2=O)c1 [SB-390771]	4
Cc1cc(-c2c(-c3ccc(F)cc3)ncn2CCCN2CCOCC2)nc(N)n1 [SB-222517]	31

Returns the measured %Inh for the input compound. Input: Cc1ccc(-c2ccc3occ(-c4ccc(S(C)=O)cc4)c3c2)nn1 (centres unmarked)
12

Returns the measured %Inh for the input compound. Input: Fc1cc(Cl)ccc1Nc1ccnc2cc(-c3ccc(CN4CCOCC4)o3)ccc12 [GW560109]
5

Returns the measured %Inh for the input compound. Input: O=C(Nc1n[nH]c2cc(-c3cccs3)ccc12)C1CC1 [SB-731284]
56

Returns the measured %Inh for the input compound. Input: O=C(Nc1n[nH]c2nc(-c3ccccc3O)ccc12)C1CC1 [SB-711880]
49

Returns the measured %Inh for the input compound. Input: COc1cc(Nc2nccc(N3CCC(NS(=O)(=O)c4ccc(NC(C)=O)cc4)CC3)n2)cc(OC)c1OC [GSK1379825]
0

Returns the measured %Inh for the input compound. Input: N#CC1(c2cccc(C(=O)Nc3cccc(Oc4ccc5nc(NC(=O)C6CC6)sc5n4)c3)c2)CC1
12

Returns the measured %Inh for the input compound. Input: Cc1ccc(NC(=O)c2ccnc(N3CCCCC3)c2)cc1-c1ccc(C(=O)NCC2CC2)cc1 [GW775610]
8

Returns the measured %Inh for the input compound. Input: COc1cc(Nc2nccc(N3CCC(NC(=O)Nc4ccc5c(c4)OCO5)C3)n2)cc(OC)c1OC (centres unmarked) [GSK1379766]
0

Returns the measured %Inh for the input compound. Input: COc1cccc(NC(=O)NCCNc2ccnc(Nc3ccc(F)cc3)n2)c1 [GSK1379879]
0

Returns the measured %Inh for the input compound. Input: COc1ccc(C2=C(Nc3cccc(O)c3)C(=O)NC2=O)cc1 [SB-390766]
0

Returns the measured %Inh for the input compound. Input: CN(c1ccc2c(c1)nc(NCc1ccccc1)n2C)c1ccnc(Nc2ccc(CS(C)(=O)=O)cc2)n1.Cl [GW811603]
0

Returns the measured %Inh for the input compound. Input: Nc1ncc(-c2ccc3nccc(-c4ccncc4)c3c2)cc1S(=O)(=O)N1CCCCC1 [GSK1693850]
21

Returns the measured %Inh for the input compound. Input: COC(=O)Nc1nc2ccc(Oc3ccc(NC(=O)Nc4cc(C(F)(F)F)ccc4F)cc3)cc2[nH]1.Cl [GW654607]
0

Returns the measured %Inh for the input compound. Input: CS(=O)(=O)c1cccc(CNc2nc(Nc3ccc4c(c3)CCC(=O)N4)ncc2C(F)(F)F)c1
24

Returns the measured %Inh for the input compound. Input: O=C(Nc1c(F)cccc1F)c1cc(C(=O)c2ccccc2F)c[nH]1 [GSK1326180]
0

Returns the measured %Inh for the input compound. Input: Fc1cc(Cl)ccc1Nc1ccnc2cc(-c3ccc(CN4CCSCC4)o3)ccc12 [GW560106]
0

Returns the measured %Inh for the input compound. Input: NCCC(NC(=O)c1cc(Br)c(-c2ccnc3[nH]ccc23)s1)c1ccccc1.O=C(O)C(F)(F)F.O=C(O)C(F)(F)F (centres unmarked) [GSK1307810]
100

Returns the measured %Inh for the input compound. Input: CC(C)c1nc(-c2cccc(NS(=O)(=O)c3c(F)cccc3F)c2)c(-c2ccnc(Nc3ccc(N4CCOCC4)nc3)n2)s1.Cl [GSK1723980]
9

----------
tested on: CDKL3; details: concentration: 1 μM, replicates: in singlicate; n = 1
Let's look at some compounds and their measured %Inh.
Express the result in % but write the number alone.

Solved cases (2 shown):
Compound	Outcome measure	Test result
COc1cccc2c(-c3ccncc3)c(-c3ccc(F)cc3)nn12 [GW468513]	%Inh	0
COc1ccc(C)c(Nc2ccnc(Nc3ccc(-c4cnc[nH]4)cc3)n2)c1.Cl [GW784041]	%Inh	0

Now, please, on to the next compound.
Returns the measured %Inh for the input compound. Input: COc1ccc(C2=C(Nc3cccc(O)c3)C(=O)NC2=O)cc1 [SB-390766]
32

----------
Let's look at some compounds and their measured %Inh.
system: CDK8; conditions: concentration: 1 μM, replicates: in singlicate; n = 1
Express the result in % but write the number alone.

Solved cases (3 shown):
Smiles representation	Unit abbreviation	%Inh
Cl.N#CCc1ccc(Nc2nccc(Nc3ccc(Oc4ccccc4)cc3)n2)cc1	%	0
CCn1c(-c2nonc2N)nc2c(-c3ccccc3)ncc(OCCCN)c21.O=C(O)C(F)(F)F.O=C(O)C(F)(F)F	%	1
O=C(Nc1n[nH]c2cc(-c3cccs3)ccc12)C1CC1	%	15

Returns the measured %Inh for the input compound. Input: O=C(Nc1n[nH]c2nc(-c3cccc(O)c3)ccc12)C1CC1
0

Returns the measured %Inh for the input compound. Input: c1ccc(Oc2ccc(Nc3ccnc4cc(-c5ccc(CN6CCCCC6)o5)ccc34)cc2)nc1
14

Returns the measured %Inh for the input compound. Input: COC(=O)Nc1nc2ccc(Oc3ccc(CC(=O)Nc4cc(C(F)(F)F)ccc4F)cc3)cc2[nH]1
0

Returns the measured %Inh for the input compound. Input: Cc1ccc(NC(=O)c2cccc(N3CCCCC3)c2)cc1-c1ccc(C(=O)NCC2CC2)cc1
10

Returns the measured %Inh for the input compound. Input: CN(C)CCOc1ccc(-c2cc(-c3ccc(Cl)c(O)c3)c(-c3ccncc3)[nH]2)cc1.Cl.Cl
38

Returns the measured %Inh for the input compound. Input: Cc1cccc(Nc2nc(N[C@H]3CCCC[C@H]3N)ncc2C(N)=O)c1.Cl
0
